Origin of measurements: PubChem BioAssay (NCI)

test system: NCI-H460 lung; experiment: NCI-60 one-dose screen, 48 h; details: 10 µM unless noted
The panel holds about 83,000 compounds, 20% with a hit somewhere; the sample as a whole holds those more often. The source made the active and inactive calls. Rule for the calls: active = growth percent below 10; inactive = the rest.
Answer with one of the outcomes given here: active, inactive

Exercise: Check the results log: what was the call for N#Cc1ccc(C(=O)Nn2c(N)cc3ccccc3c2=O)cc1 ?
Solution: inactive

Exercise: Hi team, can someone confirm the assay call for Cc1ccc(-c2nc(Nc3ccccc3S(N)(=O)=O)c3ccccc3n2)cc1 ?
Solution: inactive

Exercise: Short answer needed: outcome of this test for COc1ccc(-c2nc3cc(C)ccc3n2CC(=O)N=Nc2c(O)[nH]c3ccccc23)cc1 ?
Solution: active

Exercise: Fill in: this test's call for COc1ccc(C2CC(c3ccc(S(=O)(=O)NCCNc4nc(Nc5ccc(F)cc5)nc(N(C)C)n4)cc3)=Nc3c(N)nc(N)nc3N2)cc1 (centres undefined) is ___
Solution: inactive

Exercise: Can you look up the reported call for CCCS(=O)(=O)N1CCCC(C(=O)Nc2nc3ccc(NC(=O)c4ccc(F)c(OC)c4F)cc3s2)C1 (centres undefined) for me?
Solution: inactive

Exercise: Recorded test call requested for CCC(C)(C)c1ccc(OCCCCCCN2CCN(c3ccncc3)CC2)cc1
Solution: active

Exercise: Give the logged outcome of this assay for the following compound: Nc1nc(-c2ccccc2)c(N=Nc2ccc([N+](=O)[O-])cc2Cl)s1
Solution: inactive

Exercise: Any idea what this test logged for CN1CCN(c2ccc(C(=O)/C=C/c3ccc(Br)cc3)cc2)CC1 ?
Solution: inactive

Exercise: Test call for this compound, please: CC(=O)N1CCN(Cc2ccc3c(NNC(=O)c4cnccn4)nc4cc(F)ccc4n23)CC1
Solution: active

---

system: HCT-15 colon; test: NCI-60 one-dose screen, 48 h (100 = growth as untreated, 0 = no growth, -100 = all killed); conditions: 10 µM unless noted
The panel holds about 83,000 compounds, 20% with a hit somewhere; the sample as a whole holds those more often.
Could you please report measured growth for the items listed next?
Field format: number, assumed %, no unit text.

Exercise: Requested read-out growth, target or system HCT-15 colon, entry CN1CCN(c2ccc(C(=O)/C=C/c3cc(C(F)(F)F)cc(C(F)(F)F)c3)cc2)CC1
Solution: -84.2

Exercise: Lab note: need growth for COc1cc(C2CC(c3cc(OC)c(OC)c(OC)c3)=NN2C(C)=O)ccc1OCc1ccc(F)cc1 (stereo unspecified) on HCT-15 colon, anyone have it?
Solution: 42.5

Exercise: Which growth is reported with HCT-15 colon for this entry: Cn1cc(-c2nnc(N)nc2-c2c[nH]c3ccccc23)c2cccnc21 ?
Solution: 28.9

Exercise: Quick check: growth on HCT-15 colon, item COc1ccc2c(c1)c(-c1cc3nc(-c4cn(C)c5ncccc45)cc(N)n3n1)cn2C ?
Solution: -57.7

Exercise: Give the reported growth for O=C(NNc1nc2cc(F)ccc2n2c(C(=O)N3CCN(C4CC4)CC3)ccc12)c1ncccn1 (system: HCT-15 colon).
Solution: 10.5

Exercise: Value wanted: growth (HCT-15 colon) of entry COc1ccc(/C=C2\C(=N)N=C(SCc3nc4ccccc4[nH]3)NC2=O)cc1
Solution: 104

Exercise: Fill in the recorded growth for this molecule, with HCT-15 colon as test system: CCCn1cc(-c2nc(Nc3ccc(C(=O)NCCCCNc4cccc5c4C(=O)N(C4CCC(=O)NC4=O)C5=O)cc3)nc3[nH]ccc23)cn1 (stereo unspecified)
Solution: 40.1

Exercise: Recall the recorded growth for Cn1cc(-c2cc(N)n3nc(-c4cn(C)c5ccc(Cl)cc45)cc3n2)c2ccccc21 with HCT-15 colon and state it.
Solution: 100

Exercise: What measured growth is associated with Cn1cc(-c2nc(N)nnc2-c2c[nH]c3ccc(Br)cc23)c2cc(Br)cnc21 on HCT-15 colon?
Solution: 3.67

Exercise: Find growth (HCT-15 colon) for the entry C[C@H](Nc1nc(NCCc2ccccc2)nc2ccccc12)c1ccccc1
Solution: -91.2

Exercise: What reported growth corresponds to COc1cc(CNC(=O)/C=C/c2ccc3c(c2)OCO3)ccc1OCc1cn(-c2cccc(C(F)(F)F)c2)nn1 on HCT-15 colon?
Solution: 38.2

Exercise: Lookup: growth / HCT-15 colon / CCCSc1nc(Nc2ccc(S(N)(=O)=O)cc2)c(C#N)c(-c2cc(OC)c(OC)c(OC)c2)n1
Solution: 15.3

Exercise: // lookup growth | system=HCT-15 colon | key= NS(=O)(=O)c1ccc(-n2cc(-c3cccc(NC(=O)c4cc(C(F)(F)F)cc(C(F)(F)F)c4)c3)nn2)cc1
Solution: 85.7

Exercise: For the record CCCCCCn1c(O)c(N=Nc2nc(-c3cc4ccccc4oc3=O)cs2)c2ccccc21 , what value of growth is listed for HCT-15 colon?
Solution: 36.7

Exercise: HCT-15 colon / growth / CN1CCc2c(sc3ncnc(N/N=C/c4ccc(Cl)cc4Cl)c23)C1 : value?
Solution: 10.2

Exercise: Under HCT-15 colon: growth value of O=C1CC(Sc2n[nH]c(-c3ccncc3)n2)C(=O)N1c1ccc(Br)cc1 (stereo unspecified) ?
Solution: 102

Exercise: # get_value(readout= growth, system= HCT-15 colon) for COc1cc(CNC(=O)/C=C/c2ccc3c(c2)OCO3)ccc1OCc1cn(-c2ccc([N+](=O)[O-])cc2)nn1
Solution: 97.3

Exercise: Write down the reported growth of COc1cc2c(c(OC)c1OC)C(=O)CC(c1cccc(NC(=O)c3cc(NC(=O)[C@@H](N)CO)ccc3C)c1)O2 (stereo partly specified) , test system: HCT-15 colon.
Solution: 110

Exercise: What value of growth on HCT-15 colon does CC(C)C(C(=O)O)n1c(O)c(/C=C2/C=c3cc4c(cc3=NC2=O)OCO4)sc1=S (stereo unspecified) have?
Solution: 101

Exercise: growth of CN(C)CCOc1ccc(C(=O)C2[C@H](c3ccc(Cl)cc3)[C@@H](c3ccccc3)NC23C(=O)Nc2ccc(Br)cc23)cc1 (stereo partly specified) on HCT-15 colon?
Solution: -81.5

Exercise: Notebook: pull reported growth for HCT-15 colon, entry CC(=O)Nc1cccc(Nc2nc(N[C@H]3CCCc4ccccc43)c3ccccc3n2)c1
Solution: 97.5

Exercise: Notebook entry, HCT-15 colon assay: growth of COc1ccc(NC(=O)[C@@H](N)Cc2ccccc2)cc1C(=O)Nc1cccc(C2CC(=O)c3c(cc(OC)c(OC)c3OC)O2)c1 (stereo partly specified) = ?
Solution: 37.7

Exercise: Query the reported growth for HCT-15 colon; item: CC1(C)CC[C@]2(C(=O)Nc3ccc(Br)cc3)CC[C@]3(C)C(=CCC4[C@@]5(C)C[C@@H](O)[C@H](O)[C@@](C)(CO)C5CC[C@]43C)C2C1 (stereo partly specified)
Solution: -13

Exercise: What growth appears in the records for this molecule with HCT-15 colon? COc1ccccc1/C=C/C(=O)c1ccc(OC)c(S(N)(=O)=O)c1
Solution: 7.53

Exercise: Short answer please: growth, HCT-15 colon, entry CCCSc1nc(Nc2ccc(S(N)(=O)=O)cc2)c(C#N)c(-c2ccc(Cl)cc2)n1
Solution: 21.7

Exercise: HCT-15 colon / growth / C#CCOc1cc(N(CC)CC)ccc1C(C(=O)NC(C)(C)C)N(C(=O)C1CCc2cc(F)ccc2O1)c1ccc(F)cc1 (stereo unspecified) : value?
Solution: 44.6

Exercise: # value lookup — system HCT-15 colon, readout growth, item COc1ccc(/C=C/c2n(Cc3ccc4ccccc4c3)c3ccccc3[n+]2Cc2ccc3ccccc3c2)cc1
Solution: -76.9

Exercise: Return growth measured with HCT-15 colon given this molecule: Nc1nc(C(F)(F)F)cs1
Solution: 104

Exercise: Find growth (HCT-15 colon) for the entry COc1ccc(NC(=O)Nc2ccc(OCc3ccc(F)cc3)cc2)cc1
Solution: 91.1

Exercise: Which growth is reported with HCT-15 colon for this entry: Cc1cc(N=C2NC(=O)CS2)n[nH]1 ?
Solution: 104

Exercise: Notebook: pull reported growth for HCT-15 colon, entry CN(C)c1nc(NCCNS(=O)(=O)c2ccc(C(=O)/C=C/c3ccc(F)cc3)cc2)nc(Nc2ccc(F)cc2)n1
Solution: -91.7

Exercise: Give recorded growth with HCT-15 colon for the following molecule: CN1CCN(c2ccc3c(c2)nc(NNC(=O)c2cnccn2)c2cccn23)CC1
Solution: -51

Exercise: Please provide the recorded growth for O=C(NNc1nc2cc(F)ccc2n2c(CN3CC4CNCC4C3)ccc12)c1ccncn1 (stereo unspecified) , tested on HCT-15 colon.
Solution: 28.9

Exercise: What value of growth on HCT-15 colon does Cc1cc2c(cc1Cl)C(=O)/C(=C/c1ccccc1)O2 have?
Solution: 13.3

Exercise: Could you share what growth was measured for C=C1CC[C@@H]2[C@]3(C)COC(c4ccccc4)O[C@@H]3CC[C@@]2(C)[C@@H]1C/C=C1/C(=O)OCC1OC(C)=O (stereo partly specified) , tested on HCT-15 colon?
Solution: -87.3

Exercise: Record lookup: for HCT-15 colon, what growth belongs to NS(=O)(=O)c1ccc(-n2cc(-c3cccc(NC(=O)c4cc(N5CCOCC5)cc(C(F)(F)F)c4)c3)nn2)cc1 ?
Solution: 105
